Entries annotated with measured koff
target: T1, extracellular domain of epidermal growth factor receptor (EGFR), residues 1–618 (Homo sapiens (; human EGFR in …, UniProt P00533); assay: SPR; Biacore 8K; EGFR extracellular domain immobilised on CM5 chip by amine coupling (~1000 RU); VHHs injected in two-fold serial dilutions at 30 μl/min; 25°C; PBS with 0.005% Tween20; conditions: both partners purified
T1 construct: Epidermal growth factor receptor (EGFR), extracellular domain, residues 1-618; also called extracellular domain of EGFR; source: Sf9 expression system (baculovirus), purified from the culture supernatant (Ni-NTA, SEC)
// return numeric value only (unit: s⁻¹, not printed)

# count of solved cases: 2
binder: 7D12‐Vob Y42F‐L52F‐F106A (VHH, PDB 7XL1) with the stated changes; IMGT numbering; also called triple mutant; source: E. coli BL21(DE3), periplasmic fraction, purified (Ni-NTA, SEC)) VHH: EVQLVESGGGLVQPGGSLRLSCAASGRTSRSYGMGWFRQAPGKGREFVAGISWRGDSTGYADSVKGRFTISRDNAKNTLYLQMNSLRPEDTAVYYCAAAAGSAWYGTLYEYDYWGQGTLVTVSS
koff [s⁻¹]: 0.0693

binder: 7D12‐Vob L52F (VHH, PDB 7XL1) with the stated change; IMGT numbering; source: E. coli BL21(DE3), periplasmic fraction, purified (Ni-NTA, SEC)) VHH: EVQLVESGGGLVQPGGSLRLSCAASGRTSRSYGMGWYRQAPGKGREFVAGISWRGDSTGYADSVKGRFTISRDNAKNTLYLQMNSLRPEDTAVYYCAFAAGSAWYGTLYEYDYWGQGTLVTVSS
koff [s⁻¹]: 0.123

Pending binder:
Field request: koff | item: 7D12‐Vob F106A (VHH, PDB 7XL1) with the stated change; IMGT numbering; source: E. coli BL21(DE3), periplasmic fraction, purified (Ni-NTA, SEC)) VHH: EVQLVESGGGLVQPGGSLRLSCAASGRTSRSYGMGWYRQAPGKGRELVAGISWRGDSTGYADSVKGRFTISRDNAKNTLYLQMNSLRPEDTAVYYCAAAAGSAWYGTLYEYDYWGQGTLVTVSS
0.152

Hello, the source for this data is paper PMC9601775, in case you need it.
